Biological target: T1, R&D hRGMc-His (human, UniProt Q6ZVN8 36-400)
T1 construct: Bought (R&D); not shown: His tag
T1 sequence: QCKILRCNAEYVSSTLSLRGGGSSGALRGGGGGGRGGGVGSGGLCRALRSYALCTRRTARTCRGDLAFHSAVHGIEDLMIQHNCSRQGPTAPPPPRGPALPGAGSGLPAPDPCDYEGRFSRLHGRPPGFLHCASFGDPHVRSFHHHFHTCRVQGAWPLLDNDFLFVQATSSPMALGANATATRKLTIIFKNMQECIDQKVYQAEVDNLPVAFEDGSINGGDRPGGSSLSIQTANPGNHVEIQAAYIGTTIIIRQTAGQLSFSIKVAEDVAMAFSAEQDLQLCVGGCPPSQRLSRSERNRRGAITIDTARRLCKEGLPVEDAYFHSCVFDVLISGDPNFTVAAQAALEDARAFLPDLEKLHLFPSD
Test: Affinity KD (nM); (BIAcore per Example 4)
endpoint-label: pKd
pKd field: float, defined as -log10 of concentration (mol/L).

binder	pKd
RGMA-h5F9Vh7a/pJP291 hIgG1/K mut (antibody, V domains shown, Tested as IgG; also called h5F9.AM4; H5F9AM.4) VH: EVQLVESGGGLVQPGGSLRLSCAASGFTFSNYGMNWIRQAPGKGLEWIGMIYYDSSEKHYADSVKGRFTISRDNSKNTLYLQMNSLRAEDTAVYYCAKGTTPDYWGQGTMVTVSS VL: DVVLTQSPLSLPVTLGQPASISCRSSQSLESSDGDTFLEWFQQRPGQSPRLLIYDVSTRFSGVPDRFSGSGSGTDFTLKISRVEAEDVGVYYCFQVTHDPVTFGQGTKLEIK	9.92

For reference, reported pKd for RGMA-h5F9pJP302/pJP303 hIgG1/K mut (antibody, V domains shown, Tested as IgG; also called h5F9.AM11; H5F9AM.11) VH: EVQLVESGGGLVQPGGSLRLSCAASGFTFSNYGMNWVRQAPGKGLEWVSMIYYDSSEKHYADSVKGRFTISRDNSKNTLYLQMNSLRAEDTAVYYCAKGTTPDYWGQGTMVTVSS VL: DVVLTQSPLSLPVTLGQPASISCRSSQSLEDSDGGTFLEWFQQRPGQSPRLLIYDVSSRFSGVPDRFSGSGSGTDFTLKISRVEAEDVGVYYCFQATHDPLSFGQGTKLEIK stands at 9.60

What the record says about RGMA-h5F9pJP297/pJP298 hIgG1/K mut (antibody, V domains shown, Tested as IgG; also called h5F9.AM8; H5F9AM.8) VH: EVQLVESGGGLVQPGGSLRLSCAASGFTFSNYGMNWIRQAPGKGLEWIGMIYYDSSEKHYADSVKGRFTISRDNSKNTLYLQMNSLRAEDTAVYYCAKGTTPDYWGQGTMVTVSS VL: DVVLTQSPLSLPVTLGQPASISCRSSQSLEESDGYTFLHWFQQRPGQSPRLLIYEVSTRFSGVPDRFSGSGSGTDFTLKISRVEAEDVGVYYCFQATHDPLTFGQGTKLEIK : pKd is 10.10
